Quick list: IC90 per entry.
Tested on: M. tuberculosis H37Rv growth inhibition, 7H9 media
Assay: M. tuberculosis growth inhibition, HTS (AID 449762);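 also: bacterial growth assessed after seven days of incubation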
Conditions: measured here: IC90 growth inhibition
Results filed as inconclusive are left out.
Form entry: value (µM) — number only.

Here's what some known entries look like.
{"columns": ["compoundStructure", "measurementType", "measureUnit", "endpointResult"],
 "data": [
  ["Cc1cccc2c1-c1sc(C(=O)Nc3ccccc3N3CCN(C)CC3)cc1CO2", "IC90", "µM", 25.1],
  ["CN(c1ccccc1)c1ccc(/C=C/[N+](=O)[O-])cc1", "IC90", "µM", 16.9],
  ["C/C(Cl)=C\\COc1cc(C)nc2c(Br)cccc12", "IC90", "µM", 25.1],
  ["CCCCC(O)(CCCC)C(=O)NN(C(=O)CCl)c1ccccc1", "IC90", "µM", 10.5]
]}

Query COc1ccc2cc1Oc1ccc(cc1)C[C@H]1c3c(cc(OC)c4c3Oc3c(ccc5c3[C@H](C2)N(C)CC5)O4)CCN1C yields IC90 of 6.44

----------
Test system: M. tuberculosis H37Rv growth inhibition, 7H9 media
Assay: M. tuberculosis growth inhibition, HTS (AID 449762);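 also: bacterial growth assessed after seven days of incubation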
Conditions: measured here: IC90 growth inhibition
Inconclusive results are not listed.
measurementType: IC90 (µM)
Quick note: give the figure in µM, leave out the unit.

{"columns": ["compoundStructure", "testedOn", "endpointResult"],
 "data": [
  ["Cc1cc([N+](=O)[O-])c2ccccc2[n+]1[O-]", "M. tuberculosis H37Rv growth inhibition, 7H9 media", 9.62]
]}

Lab note: measured IC90 of O=C(CCl)NCc1cc(-c2ccc(Cl)cc2)no1 was 1.33

Reported IC90 of N#CC1=C(c2ccccc2)/C(=C/c2ccccc2)OC1=O : 20.1

compound COc1ccc(CCNc2nc(N3CCCCC3)nc(N3CCCCC3)n2)cc1OC , IC90 observed: 22.5

Reported IC90 for C=CC[n+]1ccn(-c2nc3ccccc3nc2[N-]S(=O)(=O)c2cccs2)c1 was 28.1

// field: IC90; key: Cc1ccc2[nH]c(C(=O)NN=C3CCCCC3)c(-c3ccccc3)c2c1 ; value = 56.6

----------
Each entry below carries its recorded log10(IC90).
Tested on: M. tuberculosis H37Rv growth inhibition, 7H9 media
Test: M. tuberculosis growth inhibition, HTS (AID 449762);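 also: bacterial growth assessed after seven days of incubation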
Conditions: measured here: IC90 growth inhibition
Records with an inconclusive call do not appear.
Log10 applied to IC90; unit prior to transform: µM.

{"columns": ["molecule", "endpointResult"],
 "data": [
  ["CC(C)CC[n+]1ccccc1/C=C/c1ccc(N(C)C)cc1", 0.92],
  ["CCOC(=O)c1c(C)n(-c2ccc(C)cc2)c2ccc(OCC(O)CNCC3CCCO3)cc12 (stereo unspecified)", 1.49],
  ["CN1OC(COC(=O)c2ccc(Cl)cc2Cl)CC1c1ccccc1 (stereo unspecified)", 1.21]
]}

I looked up CC1=NNC(=O)/C1=C\c1cn(-c2ccccc2)nc1-c1ccc(Cl)cc1 and its log10(IC90) for M. tuberculosis H37Rv growth inhibition, 7H9 media was 1.57

Readout log10(IC90) for CCOC(=O)c1cc(-c2ccccc2)nc2c1c(C)nn2-c1ccccn1 , test system M. tuberculosis H37Rv growth inhibition, 7H9 media, was 1.43

Lab entry: M. tuberculosis H37Rv growth inhibition, 7H9 media assay, molecule CCc1ccc2nc(N3C(=O)C(O)=C(C(=O)c4ccco4)C3c3cccs3)sc2c1 (stereo unspecified) , log10(IC90) = 1.97

Form: item Cn1c(SCc2ccccc2)nc(N)c(N=O)c1=O ; test system M. tuberculosis H37Rv growth inhibition, 7H9 media; log10(IC90): 1.32

The recorded log10(IC90) with M. tuberculosis H37Rv growth inhibition, 7H9 media for COc1ccc(C(=O)c2c(C(F)(F)F)oc3c2C(=O)c2ccccc2C3=O)cc1OC was 1.25

The value of log10(IC90) recorded for CN(C(=O)COC(=O)c1sc2ccccc2c1Cl)C1CCCCC1 when tested on M. tuberculosis H37Rv growth inhibition, 7H9 media reads 1.18

Record CN1CCN(C2=Cc3ccc(Cl)cc3Sc3ccc(F)cc32)CC1 ; system M. tuberculosis H37Rv growth inhibition, 7H9 media; log10(IC90) = 1.52
